assayExplanation: Inhibition of human chymotrypsin
pKi: −log10 of the molar value.
measurementName: pKi

Given item COc1ccc(-n2nc(C(N)=O)c3c2C(=O)N(c2ccc(C(C)(C)CO)cc2)CC3)cc1 , the value recorded as its pKi is < 4.40

----------
assayExplanation: Half life in dog at 0.2 mg/kg, po administered as cassette dosing
Assay type: ADME, organism-based, Canis lupus familiaris
Set-up: dose 0.2 mg/kg, route oral
experimentalContext: in vivo
half-life under 2 h gets Criterion met, anything at or over 2 h gets Criterion not met.

Record COc1ccc(-n2nc(C(N)=O)c3c2C(=O)N(c2ccc(C(C)(C)CN)cc2)CC3)cc1 : is its half-life strictly below 2 h?
Criterion not met

Please check: half-life for COc1ccc(-n2nc(C(N)=O)c3c2C(=O)N(c2ccc(C(C)(C)CN4CCOCC4)cc2)CC3)cc1 , strictly under 2 h or not?
Criterion not met

Could you please tell me whether half-life recorded for COc1ccc(-n2nc(S(C)(=O)=O)c3c2C(=O)N(c2ccc(C(C)(C)CN4CCCC4)cc2)CC3)cc1 is less than 2 h?
Criterion met

Dear reviewer, please state whether COc1ccc(-n2nc(C(N)=O)c3c2C(=O)N(c2ccc(C(C)(C)CO)cc2)CC3)cc1 has half-life strictly beneath 2 h.
Criterion not met

Does the reported half-life of the following molecule sit strictly below 2 h? COc1ccc(-n2nc(S(C)(=O)=O)c3c2C(=O)N(c2ccc(C(C)(C)CN(C)C)cc2)CC3)cc1
Criterion met

Bench note: check whether COc1ccc(-n2nc(C(N)=O)c3c2C(=O)N(c2ccc(C(C)(C)S(C)(=O)=O)cc2)CC3)cc1 shows half-life below 2 h
Criterion met

I'd appreciate it if you could check whether COc1ccc(-n2nc(S(C)(=O)=O)c3c2C(=O)N(c2ccc(C(C)(C)CN4CCOCC4)cc2)CC3)cc1 has half-life smaller than 2 h.
Criterion not met

Determine whether this molecule shows half-life lower than 2 h (ties excluded): COc1ccc(-n2nc(C(N)=O)c3c2C(=O)N(c2ccc(C(C)(C)CN(C)C)cc2)CC3)cc1
Criterion met

----------
Would you kindly list Ki for each of these molecules?
A number alone suffices; assume nM.

Bench note, Coagulation factor X (Homo sapiens, UniProt P00742): COc1ccc(-n2nc(C(N)=O)c3c2C(=O)N(c2ccc(C(C)(C)N4CCCC4)cc2)CC3)cc1 , Ki reads 0.07

Measured on Coagulation factor X (Homo sapiens, UniProt P00742), COc1ccc(-n2nc(C(N)=O)c3c2C(=O)N(c2ccc(C(C)(C)CN)cc2)CC3)cc1 has a documented Ki of 0.15

Fill in: Coagulation factor X (Homo sapiens, UniProt P00742) Ki for COc1ccc(-n2nc(C(N)=O)c3c2C(=O)N(c2ccc(C(C)(C)CO)cc2)CC3)cc1 = 0.66

Param item: COc1ccc(-n2nc(C(N)=O)c3c2C(=O)N(c2ccc(C(C)(C)CN(C)C)cc2)CC3)cc1 ; param system: Coagulation factor X (Homo sapiens, UniProt P00742); output Ki: 0.07

Ki of COc1ccc(-n2nc(C(N)=O)c3c2C(=O)N(c2ccc(C(C)(C)C#N)cc2)CC3)cc1 , assay on Coagulation factor X (Homo sapiens, UniProt P00742), is 1.22

----------
assayExplanation: Oral bioavailability in dog at 0.2 mg/kg administered as cassette dosing
Format: ADME, organism-based, Canis lupus familiaris
experimentalContext: in vivo
Parameter threshold = 40%. Response is class 1 when bioavailability meets or exceeds it, else class 0.

Check this compound for bioavailability at or above 40%: COc1ccc(-n2nc(S(C)(=O)=O)c3c2C(=O)N(c2ccc(C(C)(C)CN4CCOCC4)cc2)CC3)cc1
class 0

Could you verify whether the entry COc1ccc(-n2nc(C(N)=O)c3c2C(=O)N(c2ccc(C(C)(C)CO)cc2)CC3)cc1 shows bioavailability of no less than 40%?
class 1

Determine whether this compound has bioavailability no lower than 40%: COc1ccc(-n2nc(C(N)=O)c3c2C(=O)N(c2ccc(C(C)(C)S(C)(=O)=O)cc2)CC3)cc1
class 1

Textbook exercise: given the entry COc1ccc(-n2nc(S(C)(=O)=O)c3c2C(=O)N(c2ccc(C(C)(C)CN(C)C)cc2)CC3)cc1 , state whether its bioavailability is greater than or equal to 40%.
class 0

Would you say COc1ccc(-n2nc(C(N)=O)c3c2C(=O)N(c2ccc(C(C)(C)CN)cc2)CC3)cc1 shows bioavailability at minimum 40%?
class 1

Threshold query (bioavailability >= 40%) on COc1ccc(-n2nc(C(N)=O)c3c2C(=O)N(c2ccc(C(C)(C)CN4CCOCC4)cc2)CC3)cc1
class 0

Threshold query (bioavailability >= 40%) on COc1ccc(-n2nc(S(C)(=O)=O)c3c2C(=O)N(c2ccc(C(C)(C)CN4CCCC4)cc2)CC3)cc1
class 0
